B1: Homeobox protein cut-like 1, residues 548 to 629; numbered along this chain, P39880 (parent)
chain: GEEMDTAEIARQVKEQLIKHNIGQRIFGHYVLGLSQGSVSEILARPKPWNKLTVRGKEPFHKMKQFLSDEQNILALRSIQGR

- Variants of: B1
- Procedure text: abundance fitness (aPCA) (normalised: wild type 0, dead -1); higher = more abundant; growth selection in yeast, the domain comes from the species named
- Conditions: Homo sapiens
Parameter: abundance fitness
Lab note: record just the number, no unit beside it.

Please review the entries below; each comes with its answer.
Mutation descriptor	abundance fitness
R55H	0.077
K62P	-0.989
E8D	-0.032
A7D	-0.136
K47H	-0.276

Query: Return reported abundance fitness; argument: L32R
Response: -0.943

Query: Subsequent entry: H29F
Response: -0.15

Query: Subsequent entry: H29N
Response: -0.012

Query: Subsequent entry: Q36D
Response: 0.056

Query: Subsequent entry: E2C
Response: -0.137

Query: Subsequent entry: Y30V
Response: -0.053

Query: Subsequent entry: I9A
Response: -0.695

Query: Subsequent entry: G23Q
Response: 0.043

Query: Subsequent entry: K47D
Response: -0.08
